// reported OD450 at 0.11 nM for each item listed
# SYSTEM UNDER TEST: biotinylated labeled human GPC3 protein (produced in-house) (human, UniProt P51654 25-559, limits assumed, biotinylated (Dojindo, Cat. No. LK03); sites not stated)
# ASSAY PROTOCOL: ELISA, biotinylated human GPC3 protein
Report the value in OD450 with no unit label.

{"BINDER": "hAb005LH1L1 (antibody, human IgG1, V domains shown, Humanized F3.54.12; VH H1 + VL L1; expressed as human IgG1) VH: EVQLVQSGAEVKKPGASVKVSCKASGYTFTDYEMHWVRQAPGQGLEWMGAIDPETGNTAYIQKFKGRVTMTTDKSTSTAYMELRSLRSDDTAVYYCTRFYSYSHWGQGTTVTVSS VL: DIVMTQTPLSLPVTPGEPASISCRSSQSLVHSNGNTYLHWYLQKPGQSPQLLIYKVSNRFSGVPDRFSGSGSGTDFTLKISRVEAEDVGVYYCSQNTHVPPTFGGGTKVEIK", "MEASURED NUMBER": 0.84}

Then this binder:
Using the record for hAb001H1L1a (antibody, human IgG1, V domains shown, Humanized F2.169.2; VH H1 + VL L1a; expressed as human IgG1) VH: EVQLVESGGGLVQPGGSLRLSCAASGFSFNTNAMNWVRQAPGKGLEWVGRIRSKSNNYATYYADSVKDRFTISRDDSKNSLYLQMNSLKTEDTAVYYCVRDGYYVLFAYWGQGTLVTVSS VL: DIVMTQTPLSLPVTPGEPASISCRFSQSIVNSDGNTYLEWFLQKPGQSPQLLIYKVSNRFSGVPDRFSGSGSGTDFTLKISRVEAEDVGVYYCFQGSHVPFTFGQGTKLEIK , report its OD450 at 0.11 nM.
1.43
